Every entry's value here was drawn from patent US8835422B2.

- assay.system: human CB1 receptor (hCB1) (Homo sapiens, UniProt P21554)
- Sequence (P21554 whole entry): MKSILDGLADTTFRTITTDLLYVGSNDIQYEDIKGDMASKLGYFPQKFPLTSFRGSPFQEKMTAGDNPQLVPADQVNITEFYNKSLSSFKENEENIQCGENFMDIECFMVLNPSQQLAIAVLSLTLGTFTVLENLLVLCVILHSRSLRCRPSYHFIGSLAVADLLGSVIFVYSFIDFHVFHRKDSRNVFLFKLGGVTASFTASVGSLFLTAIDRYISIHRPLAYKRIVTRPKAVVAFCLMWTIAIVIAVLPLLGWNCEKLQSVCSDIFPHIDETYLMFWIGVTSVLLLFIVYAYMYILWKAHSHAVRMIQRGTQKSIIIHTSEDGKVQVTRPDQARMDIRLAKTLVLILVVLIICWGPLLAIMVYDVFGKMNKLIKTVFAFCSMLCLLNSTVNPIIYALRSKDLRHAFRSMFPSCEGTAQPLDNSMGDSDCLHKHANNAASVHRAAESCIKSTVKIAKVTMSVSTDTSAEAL
- assay.method.text: cAMP assay (LANCE TR-FRET) in CHO-K1 cells stably expressing hCB1
Catalogue of EC50 values
property.name: EC50

1) CNC(=O)[C@@H](NC(=O)c1nc(-c2ccccc2)n2c1CCN(C)CC2)C(C)(C)C: > 10000 nM
2) COC(=O)[C@@H](NC(=O)c1nc(-c2ccc(F)c(F)c2)n2c1CCCCC2)C(C)(C)C: 0.1 to 10 nM
3) CC(C)(C)[C@H](NC(=O)c1nc(-c2ccccc2)n2c1CCCCC2)C(=O)N1CCC1: 10 to 100 nM
4) CNC(=O)[C@@H](NC(=O)c1nc(-c2ccc(F)c(F)c2)n2c1CCCC2)C(C)(C)C: 0.1 to 10 nM
